measurementProtocol: Study of the compound's toxicity: mice mortality, LD50 by Karber method
Type: in vivo
assayConditions: male, mouse, in vivo; oral; stated as 'may exceed'; read-out: LD50 in oral administration
Where a name gives a salt, the structure may show the parent alone.
measureName: LD50 at 5 days

Input line: Returns the measured LD50 at 5 days for the input molecule. Input: N=C(N)N/N=C\c1[nH]c2ccccc2c1Nc1ccc([N+](=O)[O-])cc1 [Compound 2, hydrochloride]
Output line: > 5000 mg/kg
